# credit: patent US12421225B2

# IC50 per record follows
target.desc: UniProt Q15858
Sequence (Q15858 whole entry): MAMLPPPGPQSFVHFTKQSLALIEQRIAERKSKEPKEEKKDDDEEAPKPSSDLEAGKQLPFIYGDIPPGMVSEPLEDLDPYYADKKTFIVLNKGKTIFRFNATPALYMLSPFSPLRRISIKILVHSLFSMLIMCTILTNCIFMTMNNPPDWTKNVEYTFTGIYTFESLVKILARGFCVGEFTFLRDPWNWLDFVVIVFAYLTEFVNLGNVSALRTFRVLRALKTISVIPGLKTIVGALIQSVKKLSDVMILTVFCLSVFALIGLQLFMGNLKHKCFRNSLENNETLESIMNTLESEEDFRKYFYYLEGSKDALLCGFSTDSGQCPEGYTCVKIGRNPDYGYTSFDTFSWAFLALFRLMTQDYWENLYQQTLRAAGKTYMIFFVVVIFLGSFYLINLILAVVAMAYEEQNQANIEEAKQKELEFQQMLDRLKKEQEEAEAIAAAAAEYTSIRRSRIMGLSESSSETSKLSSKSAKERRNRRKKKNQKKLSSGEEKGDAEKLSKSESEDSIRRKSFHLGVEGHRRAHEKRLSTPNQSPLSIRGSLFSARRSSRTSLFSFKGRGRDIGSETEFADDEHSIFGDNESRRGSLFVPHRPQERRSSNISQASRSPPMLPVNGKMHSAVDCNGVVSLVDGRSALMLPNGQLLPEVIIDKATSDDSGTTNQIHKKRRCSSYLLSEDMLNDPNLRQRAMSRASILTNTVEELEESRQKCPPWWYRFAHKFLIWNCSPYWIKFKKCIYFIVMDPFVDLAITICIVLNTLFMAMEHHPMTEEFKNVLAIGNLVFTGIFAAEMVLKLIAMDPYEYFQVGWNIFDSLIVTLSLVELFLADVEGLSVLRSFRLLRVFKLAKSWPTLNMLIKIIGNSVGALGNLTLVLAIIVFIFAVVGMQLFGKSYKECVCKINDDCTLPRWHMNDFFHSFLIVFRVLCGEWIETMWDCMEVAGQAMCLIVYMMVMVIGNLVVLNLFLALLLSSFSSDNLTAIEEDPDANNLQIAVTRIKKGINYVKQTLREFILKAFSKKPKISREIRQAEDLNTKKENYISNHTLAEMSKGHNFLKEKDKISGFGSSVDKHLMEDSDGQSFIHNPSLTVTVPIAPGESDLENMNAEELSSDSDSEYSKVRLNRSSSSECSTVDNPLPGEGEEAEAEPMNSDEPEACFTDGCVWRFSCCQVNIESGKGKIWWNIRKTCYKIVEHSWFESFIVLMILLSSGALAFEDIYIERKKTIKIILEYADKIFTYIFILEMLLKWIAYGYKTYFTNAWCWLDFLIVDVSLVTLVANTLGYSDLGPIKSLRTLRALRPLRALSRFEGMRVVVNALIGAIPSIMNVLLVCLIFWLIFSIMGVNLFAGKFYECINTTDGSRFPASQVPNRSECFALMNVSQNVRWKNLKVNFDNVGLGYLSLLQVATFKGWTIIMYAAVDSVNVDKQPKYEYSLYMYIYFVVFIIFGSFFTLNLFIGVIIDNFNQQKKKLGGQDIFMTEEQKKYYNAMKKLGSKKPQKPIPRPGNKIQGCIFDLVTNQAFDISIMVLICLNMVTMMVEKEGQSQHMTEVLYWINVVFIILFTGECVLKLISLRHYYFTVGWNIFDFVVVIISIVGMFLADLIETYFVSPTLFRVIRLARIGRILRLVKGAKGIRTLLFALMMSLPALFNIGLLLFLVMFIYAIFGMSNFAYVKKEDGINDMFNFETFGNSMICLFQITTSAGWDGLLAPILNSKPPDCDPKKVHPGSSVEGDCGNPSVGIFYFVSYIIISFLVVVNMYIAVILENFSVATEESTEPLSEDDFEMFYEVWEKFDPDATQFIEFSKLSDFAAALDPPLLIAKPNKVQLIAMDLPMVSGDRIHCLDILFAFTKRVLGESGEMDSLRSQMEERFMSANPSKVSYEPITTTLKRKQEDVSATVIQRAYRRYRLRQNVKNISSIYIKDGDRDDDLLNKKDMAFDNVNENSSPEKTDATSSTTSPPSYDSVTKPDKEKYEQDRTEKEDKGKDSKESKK
Sequence (Q07699 19-218 partner): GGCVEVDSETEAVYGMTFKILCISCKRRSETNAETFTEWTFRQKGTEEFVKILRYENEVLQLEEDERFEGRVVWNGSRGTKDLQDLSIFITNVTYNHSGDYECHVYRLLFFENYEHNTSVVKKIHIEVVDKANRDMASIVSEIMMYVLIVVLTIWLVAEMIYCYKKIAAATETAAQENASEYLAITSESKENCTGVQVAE
assay.name: Human Nav1.7 inhibitory activity evaluation (automated patch clamp QPatch16X, HEK293A cells stably expressing human Nav1.7 and human Navβ1)
Assay type: cell-based
assay.conditions: human Nav1.7, automated patch clamp

// solved cases for IC50 follow
molecule	IC50
N#Cc1ccc2c(c1)C[C@@H](NC(=O)c1cc3n(n1)CCC(CSCC(F)(F)F)O3)CO2 (stereo partly shown) [Example 424]	< 10 µM
CCc1cccc(-c2c(C(=O)N[C@H]3COc4ccc(C(F)(F)F)cc4C3O)nn3c2COCC3)n1 (stereo partly shown)	< 1 µM
CN(C)CCOCc1ccc2c(c1)C[C@@H](NC(=O)c1cc3n(n1)CCC(c1ccccc1F)O3)CO2 (stereo partly shown)	< 10 µM
O=C(N[C@H]1COc2ccc(CC(F)(F)F)cc2C1)c1cc2n(n1)CC(CCN1CCC(F)(F)C1)O2 (single isomer, unassigned) [241 (isomer A)]	< 1 µM
O=C(N[C@H]1COc2ccc(C(F)(F)F)cc2C1)c1cc2n(n1)CC(CCN1CC(F)(F)C1)O2 (stereo partly shown) [Example 235]	< 10 µM
CC(C)OCCN1CCn2nc(C(=O)N[C@H]3COc4ccc(C(F)(F)F)cc4C3F)cc2C1 (stereo partly shown)	< 1 µM

Let's switch to this molecule now.
**Q:** Form: Entry = `C=C1CCn2nc(C(=O)N[C@H]3COc4ccc(Cl)cc4C3)cc2O1` | System = UniProt Q15858 | IC50 = ____
**A:** < 1 µM
